pIC50: −log10 of the molar value.
Here we gather pIC50 data for UniProt P03951 reported by several publications.
property: pIC50

Guide cases for pIC50, answers given:
[[record]]
compound = "CC[C@H](n1ncc(C(=O)N2CCC[C@@]3(C2)OC(=O)Nc2ccc(Cl)c(F)c23)c1N)C(F)(F)F (single isomer, unassigned)"
assayed_system = "UniProt P03951"
property = "pIC50"
numeric_value = 8.05

[[record]]
compound = "COCCC(C(=O)Nc1ccc(C(N)=O)c(F)c1)n1cc2c(cc1=O)-c1cc(Cl)ccc1CC1(CC1)NC2=O (stereo not shown)"
assayed_system = "UniProt P03951"
property = "pIC50"
numeric_value = 7.57

[[record]]
compound = "CCC(c1ccc2c(c1)OCO2)n1cc(C(=O)N2CCC[C@@]3(C2)OC(=O)Nc2ccc(Cl)c(F)c23)cn1 (single isomer, unassigned)"
assayed_system = "UniProt P03951"
property = "pIC50"
numeric_value = 5.75


1. CC(=O)c1ccc(Cl)cc1-c1cc(=O)n([C@@H](Cc2ccccc2)C(=O)Nc2ccc(C(=O)O)cc2)nc1OCC1CC1
2. CO[C@@H]1C[C@@H](C(=O)Nc2ccc3nccnc3c2)N2C(=O)C=C(c3c(-n4cnnn4)ccc(Cl)c3F)CC12 (mixture of isomers)
Q: Form: Entry with minimum pIC50 (choose one): 1 / 2 In your reply, give the label of the chosen option.
Result: 1
(1: 7.69, 2: 8.28)

a. COc1nn([C@@H](Cc2ccccc2)C(=O)Nc2ccc(C(=O)O)cc2)c(=O)cc1-c1cc(Cl)ccc1C(=O)CO
b. O=C(Nc1cnn(Cc2cnc(N3C[C@H]4C[C@H]4C3=O)nc2)c1)c1nc(-c2c(C(F)F)ccc(Cl)c2F)cnc1COC1CC1
c. CNC(=O)c1ccc(NC(=O)C(Cc2ccn(C)n2)n2cc(OC)c(-c3cc(Cl)ccc3C#N)cc2=O)s1 (single isomer, unassigned; enantiomer 1)
Q: Task field, ranking: reported pIC50, descending order. Reply format: the labels, ordered as requested.
Result: c, a, b

* * *

Here we gather IC50 data for Coagulation factor XI (Homo sapiens, UniProt P03951) reported by several publications.
property: IC50 (nM)

A. O=C(Nc1cnn(Cc2cnc(N3C[C@H]4C[C@H]4[C@H]3CNCC(O)C(F)F)nc2)c1)c1cncc(-c2c(C(F)F)ccc(Cl)c2F)n1 (stereo partly drawn)
B. C[C@H]1C[C@@H](C(=O)Nc2ccc3nccnc3c2)N2C(=O)C=C(c3c(-n4cnnn4)ccc(Cl)c3F)C[C@@H]12 (single isomer, unassigned)
C. Cc1cc(N2C[C@H]3C[C@H]3C2=O)cnc1C(C)n1cc(NC(=O)c2cncc(-c3c(C(F)F)ccc(Cl)c3F)n2)cn1 (single isomer, unassigned)
D. Cc1cc(C(C)n2cc(NC(=O)c3nc(-c4c(C(F)F)ccc(Cl)c4F)cnc3C)cn2)nnc1N1C[C@H]2C[C@H]2C1=O (single isomer, unassigned)
Q: Please rank the 4 items above; order by IC50, the highest number leading. Reply format: the labels, ordered as requested.
Result: C, A, D, B
(C: 7630 nM, A: 650 nM, D: 445 nM, B: 3.9 nM)

* * *

pIC50: −log10 of the molar value.
Here we gather pIC50 data for Coagulation factor XI (Homo sapiens) reported by several publications.
property: pIC50

Guide cases for pIC50, answers given:
[[record]]
compound = "CCOC(=O)c1[nH]c2nc1-c1ccc(NC(=O)OC)cc1NC(=O)C(C)(C)CCC[C@@H]2c1ccc(-c2cc(F)ccc2-n2cc(C(F)(F)F)cn2)c[n+]1[O-]"
assayed_system = "Coagulation factor XI (Homo sapiens)"
numeric_value = 9.06

[[record]]
compound = "Cc1nc(N2CCC2)ncc1[C@H](C)n1cc(NC(=O)c2cncc(-c3c(C(F)F)ccc(Cl)c3F)n2)cn1 (single isomer, unassigned)"
assayed_system = "Coagulation factor XI (Homo sapiens)"
numeric_value = 5.09


P. O=C(O)c1scc(-c2cnc(C(CC3CC3)c3ccc(-c4cc(Cl)ccc4-n4cnnn4)c[n+]3[O-])[nH]2)c1F (single isomer, unassigned)
Q. COc1nn([C@@H](Cc2ccccc2)C(=O)Nc2ccc(C(=O)O)c(Cl)c2)c(=O)cc1-c1cc(Cl)ccc1C(C)=O
Q: Form: Entry with minimum pIC50 (choose one): P / Q In your reply, give the label of the chosen option.
Result: Q
(Q: 7.10, P: 7.93)

P. COCCC(C(=O)Nc1ccc(C(=O)O)cc1)n1cc(OC)c(-c2cc(Cl)ccc2OCC(F)(F)F)cc1=O (single isomer, unassigned)
Q. O=C(O)c1ccc(NC(=O)C(CC2CC2)c2ccc(-c3cc(Cl)ccc3C(F)(F)F)c[n+]2[O-])cc1 (single isomer, unassigned)
R. C[C@@H](c1cnc(N2C[C@@H]3C[C@@H]3[C@@H]2C#N)nc1)n1cc(NC(=O)c2cncc(-c3c(C(F)F)ccc(Cl)c3F)n2)cn1
Q: Please put the entries in order of rising pIC50. Reply format: the labels, ordered as requested.
Result: R, Q, P
(R: 5.32, Q: 7.80, P: 9.55)

a. C[C@@H](c1cnc(N2CC(C)(F)C2)nc1)n1cc(NC(=O)c2cncc(-c3c(C(F)F)ccc(Cl)c3F)n2)cn1
b. Nc1cc(-c2ccccn2)nn1CC(=O)N1CC[C@@]2(C1)OC(=O)Nc1ccc(Cl)c(F)c12
Q: Select one: a or b . Criterion: greater recorded pIC50. In your reply, give the label of the chosen option.
Result: b

1. CO[C@H]1CC[C@H](CC(C(=O)Nc2ccc(C(N)=O)c(F)c2)n2cc3c(cc2=O)-c2cc(Cl)ccc2CC2(CC2)NC3=O)CC1 (stereo partly drawn)
2. Cc1cc(C(C)n2cc(NC(=O)c3nc(-c4c(C(F)F)ccc(Cl)c4F)cnc3C)cn2)cnc1N1C[C@H]2C[C@H]2C1=O (single isomer, unassigned)
Q: Select one: 1 or 2 . Criterion: greater recorded pIC50. In your reply, give the label of the chosen option.
Result: 1
